Test system: IGROV1 ovarian
Procedure details: NCI tumour cell line growth inhibition, 48 h
Attribute measured: TGI

1. O=C(CCCn1ccnc1[N+](=O)[O-])NCCn1ccnc1[N+](=O)[O-] ... > 100 µM
2. Cc1cccc2c1C/C(=C\c1cccc(C)c1C(=O)O)C2=O ... > 100 µM
3. O=C(O)CCCNS(=O)(=O)c1ccc2ccccc2c1 ... > 100 µM
4. CCCCCCCCCCCCCCCCn1cc[n+](Cc2ccccc2)c1C ... 2.29 µM
5. Nc1c(S(=O)(=O)O)cc(Nc2cccc(S(=O)(=O)/C=C/S(=O)(=O)O)c2)c2c1C(=O)c1ccccc1C2=O ... > 100 µM

====

Reported GI50, SK-MEL-2 melanoma.
Attribute measured: GI50

1) CCOC(=O)C1=C(c2ccccc2)N(c2ccc(OC)cc2)[C@]2(C#N)C(O)=C(Cl)C(Cl)=C(O)[C@]12C#N ... 32.4 µM
2) O=C1C=CC(=O)c2c1ncc1c2nc2sccn21 ... 42.8 µM
3) COc1ccc2[nH]cc(-c3nc(-c4c[nH]c5ccncc45)cs3)c2c1 ... 2.05 µM
4) CC(=O)OC12CC(C)C3(O)C4C=C(C)C(=O)[C@@]4(O)CC(CO)=C[C@H]3C1C2(C)C (stereo not given in full) ... > 1000 µM
5) Cc1cn2c(=O)n(c1=O)Cc1ccccc1C2 ... > 100 µM
6) CCN1CCC(CC(=O)Nc2n[nH]c3nc(-c4cccs4)c(Br)cc23)CC1 ... 6.24 µM
7) CO/C(=N\N=C\c1cccc(C(F)(F)F)c1)c1ccncc1 ... 22.6 µM
8) COc1ccc(-n2c3c(c4c(CN(C)C)c(O)c(C)cc42)CCc2ccccc2C3=O)cc1 ... 48 µM
9) COc1cc(-c2n/c(=C\c3c(O)[nH]c4ccccc34)cc3c2=Nc2ccccc2-3)cc(OC)c1OC ... 1.41 µM
10) Cc1cc(C)c2c(N)c3cccc(C)c3nc2n1 ... 2.03 µM

====

System: HOP-92 NSCLC
Procedure details: NCI tumour cell line growth inhibition, 48 h
Measured TGI values are reported for all entries that follow.
Attribute measured: TGI (µM)

1. COc1cc(/C=C2\C(=O)Nc3ccccc32)cc(OC)c1OC ... 71.7
2. CCOC(=O)/C(=C\c1ccc(F)cc1)C(C)=O ... 44.3
3. O=C1O[C@]2(c3ccccc3)C(c3ccccc3)=C[C@]2(C(=O)c2ccccc2)C1=O ... 64.8
4. Cc1cc2c(cc1Br)C1(C)CCC(C)C1(C)O2 (stereo not given) ... 53.7
5. CC(C)CCC[C@@H](C)[C@H]1CCC2C3=CCC4C(=O)C=CC(=O)C4C3CC[C@@]21C (stereo not given in full) ... 0.67
6. NC1=C(Cl)C(=O)c2ccccc2C1=O ... 33.7
7. Cc1ccc(Oc2nc3ccccc3cc2-c2nnc(Cn3c(COc4ccccc4)nc4ccccc43)o2)cc1 ... 5.37

====

Measured TGI values are reported for all entries that follow.
System: SR leukemia
Procedure details: NCI tumour cell line growth inhibition, 48 h
Attribute measured: TGI

1) Cc1ccc(/C(=C/C=C(C#N)C#N)Sc2ccccn2)cc1 ... 10.4 µM
2) CCN1CCC(CC(=O)Nc2n[nH]c3nc(-c4cccs4)c(Br)cc23)CC1 ... > 25 µM
3) Cc1cc([N+](=O)[O-])ccc1N=NC(=O)NNc1ccc([N+](=O)[O-])cc1C ... 47.6 µM
4) COC1/C=C/C(C)C(C(C)C(OC)C(C)CCC(=O)C(C)C(C/C=C/N(C)C=O)OC)OC(=O)/C=C/C=C(\C)CC(OC)C(OC)C2=CC(=O)O[C@@H](C(C)C(OC)CC(OC)/C=C/C(C)C(O)C1)[C@H]2O (some centres undefined) ... > 31.6 µM
5) CC1CCC2(CC1)N=C1CCC(C)CC1C1(CCC(C)CC1)N2 (centres undefined) ... > 100 µM
6) c1ccc(C2=C(c3ccccc3)P(c3ccccc3)C2)cc1 (centres undefined) ... > 100 µM
7) CCC(=O)c1ccc2c(c1)N(CCCN1CCN(CCO)CC1)c1ccccc1S2 ... 28.7 µM
8) O=C(/C=C/c1ccccc1O)/C=C/c1ccccc1O ... > 100 µM
9) CC1(C)Cc2c(Br)c(Br)c(Br)c(OCC(O)CN3CCOCC3)c2O1 (centres undefined) ... 18.4 µM
